Here, each record is paired with measured Starting values Purity data.
# Assay procedure: Stability of the powder in sealed aluminium foil bag, purity and titre by HPLC after 6 and 12 months
# Type: physicochemical
# Protocol conditions: airtight container, protected from light, start
Endpoint: Starting values Purity

> print(dat)
                                   compound                endpoint  reported
1  Nc1nc2ncc(CNc3ccc(C(=O)N[C@@H](CCC(=O)O)C(=O)O)cc3)nc2c(=O)[nH]1 [D-GLU folate, D-glucosamine L-folate]  Starting values Purity      99.1
2  CN1c2c(nc(N)[nH]c2=O)NCC1CNc1ccc(C(=O)NC(CCC(=O)O)C(=O)O)cc1 (centres unmarked)  Starting values Purity      99.3
3  CN1c2c(nc(N)[nH]c2=O)NCC1CNc1ccc(C(=O)N[C@@H](CCC(=O)O)C(=O)O)cc1 (stereo partly drawn) [D-GLU 5-MTHF]  Starting values Purity      99.1
4  Nc1nc2ncc(CNc3ccc(C(=O)N[C@@H](CCC(=O)O)C(=O)O)cc3)nc2c(=O)[nH]1 [D-GAL folate, D-galactosamine L-folate]  Starting values Purity      99.2
5  CN1c2c(nc(N)[nH]c2=O)NCC1CNc1ccc(C(=O)N[C@@H](CCC(=O)O)C(=O)O)cc1 (stereo partly drawn) [D-GAL (6R,S)-5-MTHF]  Starting values Purity      99.1

* * *

Here, each record is paired with measured After 6 months Titre data.
# Assay procedure: Stability of the powder in sealed aluminium foil bag, purity and titre by HPLC after 6 and 12 months
# Type: physicochemical
# Protocol conditions: airtight container, protected from light, 6 months
Endpoint: After 6 months Titre

> print(dat)
                                   compound              endpoint  reported
1  Nc1nc2ncc(CNc3ccc(C(=O)N[C@@H](CCC(=O)O)C(=O)O)cc3)nc2c(=O)[nH]1 [D-GAL folate, D-galactosamine L-folate]  After 6 months Titre      54.5
2  CN1c2c(nc(N)[nH]c2=O)NCC1CNc1ccc(C(=O)N[C@@H](CCC(=O)O)C(=O)O)cc1 (stereo partly drawn) [D-GLU 5-MTHF]  After 6 months Titre      55.0
3  Nc1nc2ncc(CNc3ccc(C(=O)N[C@@H](CCC(=O)O)C(=O)O)cc3)nc2c(=O)[nH]1 [D-GLU folate, D-glucosamine L-folate]  After 6 months Titre      54.3
4  CN1c2c(nc(N)[nH]c2=O)NCC1CNc1ccc(C(=O)N[C@@H](CCC(=O)O)C(=O)O)cc1 (stereo partly drawn) [D-GAL (6R,S)-5-MTHF]  After 6 months Titre      55.2
5  CN1c2c(nc(N)[nH]c2=O)NCC1CNc1ccc(C(=O)NC(CCC(=O)O)C(=O)O)cc1 [D-GLU (6S)-5-MTHF]  After 6 months Titre      55.4
